target: GST-fused human V158 FcγRIIIa (extracellular region) (human) (UniProt P08637); assay: AlphaScreen competition with biotin-WT AC10
Sequence (P08637 17-208 F176V): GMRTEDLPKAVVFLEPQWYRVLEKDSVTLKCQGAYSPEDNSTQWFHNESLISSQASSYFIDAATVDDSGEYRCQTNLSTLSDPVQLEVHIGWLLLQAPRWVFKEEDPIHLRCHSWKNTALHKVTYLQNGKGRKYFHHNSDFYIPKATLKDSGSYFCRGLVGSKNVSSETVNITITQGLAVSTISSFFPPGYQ
value-kind: IC50
The reply should consist of the numeric value with the unit placed after it.

**Query** Report measured IC50; entry is AC10 H1L3 (H1 AC10 VH, L3 AC10 VL) (antibody, from a related filing, IgG1, V domains shown) VH: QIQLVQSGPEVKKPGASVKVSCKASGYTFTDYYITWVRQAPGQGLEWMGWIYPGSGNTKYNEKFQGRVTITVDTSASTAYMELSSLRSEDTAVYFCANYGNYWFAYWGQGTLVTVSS VL: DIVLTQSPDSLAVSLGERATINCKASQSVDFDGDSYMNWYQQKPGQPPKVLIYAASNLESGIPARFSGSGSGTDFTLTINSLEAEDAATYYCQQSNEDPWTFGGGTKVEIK
**Result** 178 nM
